Readings of SI HSC-2 for the listed compounds
Tested on: HSC-2 cells
Assay: Cytotoxicity against HSC-2 cells, MTT method, 48 h
Type: cell-based, human
Conditions: average CC50 towards HGF, HPLF, HPC divided by CC50 against HSC-2
The reply should be a number, written without any unit.

Some entries whose results are on file:
O=C1/C(=C/c2ccc(O)cc2)CN(C(=O)CCN2CCC(=NO)CC2)C/C1=C\c1ccc(O)cc1 | 4.68
COc1cc(/C=C2\CN(C(=O)CC[N+]3(C)CCC(=NO)CC3)C/C(=C\c3cc(OC)c(OC)c(OC)c3)C2=O)cc(OC)c1OC (centres unmarked) | 6.50
C[N+]1(CCC(=O)N2C/C(=C\c3ccccc3)C(=O)/C(=C/c3ccccc3)C2)CCC(=NO)CC1 (centres unmarked) | 11.7
O=C1/C(=C/c2ccccc2)CN(C(=O)CCN2CCC(=NO)CC2)C/C1=C\c1ccccc1 | 12.4

Value of measured SI HSC-2 for the entry Cc1ccc(/C=C2\CN(C(=O)CCN3CCC(=NO)CC3)C/C(=C\c3ccc(C)cc3)C2=O)cc1 : 9.57

---

Test: Average over HGF, HPLF and HPC non-malignant cells
Format: cell-based
Conditions: human, HPLF and HPC non-malignant cells (average of the three)
Text: […]
measured.parameter: CC50 at 48 h (µM)
API: value field is a number in µM; no unit string.

# count of solved cases: 2
COc1cccc2c1C(=O)c1c(O)c3c(c(O)c1C2=O)C[C@@](O)(C(=O)CO)C[C@@H]3O[C@H]1C[C@H](N)[C@H](O)[C@H](C)O1 [Doxorubicin, reference compound] | 7.31
C[N+]1(CCC(=O)N2C/C(=C\c3ccccc3)C(=O)/C(=C/c3ccccc3)C2)CCC(=NO)CC1 (stereo not shown) | 17

Item: O=C1/C(=C/c2ccccc2)CN(C(=O)CCN2CCC(=NO)CC2)C/C1=C\c1ccccc1 | CC50 at 48 h: 11

Looking up O=C1/C(=C/c2ccc(F)cc2)CN(C(=O)CCN2CCC(=NO)CC2)C/C1=C\c1ccc(F)cc1 , I found its CC50 at 48 h recorded as 10.4

---

System: Ca9-22 cells
Experiment: Cytotoxicity against Ca9-22 cells, MTT method, 48 h
Format: cell-based, human
Conditions: average CC50 towards HGF, HPLF, HPC divided by CC50 against Ca9-22
Each record here notes measured SI Ca9-22.
Field format: numeric only.

Documented SI Ca9-22 of C[N+]1(CCC(=O)N2C/C(=C\c3ccc([N+](=O)[O-])cc3)C(=O)/C(=C/c3ccc([N+](=O)[O-])cc3)C2)CCC(=NO)CC1 (stereo not shown) [Compound 4e] : 104

---

Experiment: Average over HGF, HPLF and HPC non-malignant cells
Format: cell-based
Conditions: human, HPLF and HPC non-malignant cells (average of the three)
Classify by CC50 at 48 h. Ranges: low bin (below 3 µM), mid bin (3 µM to below 10 µM), high bin (10 µM or more)

COc1ccc(/C=C2\CN(C(=O)CCN3CCC(=NO)CC3)C/C(=C\c3ccc(OC)cc3)C2=O)cc1 [Compound 3g] | high bin
C[N+]1(CCC(=O)N2C/C(=C\c3ccc(Cl)c(Cl)c3)C(=O)/C(=C/c3ccc(Cl)c(Cl)c3)C2)CCC(=NO)CC1 (centres unmarked) [Compound 4d] | low bin
O=C1/C(=C/c2ccc(O)cc2)CN(C(=O)CCN2CCC(=NO)CC2)C/C1=C\c1ccc(O)cc1 [Compound 3i] | high bin

Form field 'band' for COc1cc(/C=C2\CN(C(=O)CC[N+]3(C)CCC(=NO)CC3)C/C(=C\c3cc(OC)c(OC)c(OC)c3)C2=O)cc(OC)c1OC (centres unmarked) [Compound 4h]
low bin

Lab note: sort C[N+]1(CCC(=O)N2C/C(=C\c3ccc(Cl)cc3)C(=O)/C(=C/c3ccc(Cl)cc3)C2)CCC(=NO)CC1 (centres unmarked) [Compound 4c] into the matching CC50 at 48 h band.
mid bin

Pick a category. Item: COc1ccc(/C=C2\CN(C(=O)CC[N+]3(C)CCC(=NO)CC3)C/C(=C\c3ccc(OC)cc3)C2=O)cc1 (centres unmarked) [Compound 4g]
high bin

Band for O=C1/C(=C/c2ccc(Cl)c(Cl)c2)CN(C(=O)CCN2CCC(=NO)CC2)C/C1=C\c1ccc(Cl)c(Cl)c1 [Compound 3d] ?
mid bin

Pick a category. Item: C[N+]1(CCC(=O)N2C/C(=C\c3ccc([N+](=O)[O-])cc3)C(=O)/C(=C/c3ccc([N+](=O)[O-])cc3)C2)CCC(=NO)CC1 (centres unmarked) [Compound 4e]
low bin

For the record O=C1/C(=C/c2ccc([N+](=O)[O-])cc2)CN(C(=O)CCN2CCC(=NO)CC2)C/C1=C\c1ccc([N+](=O)[O-])cc1 [Compound 3e] , report the class its CC50 at 48 h corresponds to.
mid bin

Which CC50 at 48 h category applies to Cc1ccc(/C=C2\CN(C(=O)CCN3CCC(=NO)CC3)C/C(=C\c3ccc(C)cc3)C2=O)cc1 [Compound 3f] here?
mid bin

Which CC50 at 48 h band matches C[N+]1(CCC(=O)N2C/C(=C\c3ccc(F)cc3)C(=O)/C(=C/c3ccc(F)cc3)C2)CCC(=NO)CC1 (centres unmarked) [Compound 4b] ?
mid bin

Consider O=C1/C(=C/c2ccc(Cl)cc2)CN(C(=O)CCN2CCC(=NO)CC2)C/C1=C\c1ccc(Cl)cc1 [Compound 3c] . To which CC50 at 48 h class does it belong?
high bin

Which category does the recorded CC50 at 48 h put Cc1ccc(/C=C2\CN(C(=O)CC[N+]3(C)CCC(=NO)CC3)C/C(=C\c3ccc(C)cc3)C2=O)cc1 (centres unmarked) [Compound 4f] in?
mid bin

---

Average SI by entry:
Tested on: Ca9-22, HSC-2 and HSC-4 cells
Assay: Average over Ca9-22, HSC-2 and HSC-4 neoplastic cells
Assay type: cell-based, human
Details: average of SI for Ca9-22, HSC-2 and HSC-4
Write the value as a bare number.

O=C1/C(=C/c2ccc([N+](=O)[O-])cc2)CN(C(=O)CCN2CCC(=NO)CC2)C/C1=C\c1ccc([N+](=O)[O-])cc1 | 57.5
O=C1/C(=C/c2ccc(F)cc2)CN(C(=O)CCN2CCC(=NO)CC2)C/C1=C\c1ccc(F)cc1 | 31.5
COc1cc(/C=C2\CN(C(=O)CC[N+]3(C)CCC(=NO)CC3)C/C(=C\c3cc(OC)c(OC)c(OC)c3)C2=O)cc(OC)c1OC (stereo not shown) | 11.6
COc1ccc(/C=C2\CN(C(=O)CCN3CCC(=NO)CC3)C/C(=C\c3ccc(OC)cc3)C2=O)cc1 | 13.9
C[N+]1(CCC(=O)N2C/C(=C\c3ccc(F)cc3)C(=O)/C(=C/c3ccc(F)cc3)C2)CCC(=NO)CC1 (stereo not shown) | 29.4
O=C1/C(=C/c2ccccc2)CN(C(=O)CCN2CCC(=NO)CC2)C/C1=C\c1ccccc1 | 18.1
COc1ccc(/C=C2\CN(C(=O)CC[N+]3(C)CCC(=NO)CC3)C/C(=C\c3ccc(OC)cc3)C2=O)cc1 (stereo not shown) | 26.3
COc1cccc2c1C(=O)c1c(O)c3c(c(O)c1C2=O)C[C@@](O)(C(=O)CO)C[C@@H]3O[C@H]1C[C@H](N)[C@H](O)[C@H](C)O1 [Doxorubicin, reference compound] | 43.6
O=C1/C(=C/c2ccc(O)cc2)CN(C(=O)CCN2CCC(=NO)CC2)C/C1=C\c1ccc(O)cc1 | 4.71
C[N+]1(CCC(=O)N2C/C(=C\c3ccc([N+](=O)[O-])cc3)C(=O)/C(=C/c3ccc([N+](=O)[O-])cc3)C2)CCC(=NO)CC1 (stereo not shown) | 60.0

According to the records, this compound O=C1/C(=C/c2ccc(Cl)c(Cl)c2)CN(C(=O)CCN2CCC(=NO)CC2)C/C1=C\c1ccc(Cl)c(Cl)c1 displays Average SI of 89.1

Kindly note the recorded Average SI for Cc1ccc(/C=C2\CN(C(=O)CCN3CCC(=NO)CC3)C/C(=C\c3ccc(C)cc3)C2=O)cc1 , which is 13.9

Memo: COc1cc(/C=C2\CN(C(=O)CCN3CCC(=NO)CC3)C/C(=C\c3cc(OC)c(OC)c(OC)c3)C2=O)cc(OC)c1OC , reported Average SI: 22.5

get_value(item= C[N+]1(CCC(=O)N2C/C(=C\c3ccccc3)C(=O)/C(=C/c3ccccc3)C2)CCC(=NO)CC1 (stereo not shown) , readout=Average SI) returns 23.8

So for Cc1ccc(/C=C2\CN(C(=O)CC[N+]3(C)CCC(=NO)CC3)C/C(=C\c3ccc(C)cc3)C2=O)cc1 (stereo not shown) , the logged Average SI turned out to be 32.6

Recorded Average SI (compound O=C1/C(=C/c2ccc(Cl)cc2)CN(C(=O)CCN2CCC(=NO)CC2)C/C1=C\c1ccc(Cl)cc1 ): 69.5
